# SYSTEM NAME: androgen receptor (AR) (Rattus norvegicus)
# Construct: Ventral prostates were obtained form rats castrated 24 h prior to sacrifice; from tissue; host or cells: rat ventral prostate cytosol (castrated rats, charcoal-treated)
# Sequence (P15207 1-902): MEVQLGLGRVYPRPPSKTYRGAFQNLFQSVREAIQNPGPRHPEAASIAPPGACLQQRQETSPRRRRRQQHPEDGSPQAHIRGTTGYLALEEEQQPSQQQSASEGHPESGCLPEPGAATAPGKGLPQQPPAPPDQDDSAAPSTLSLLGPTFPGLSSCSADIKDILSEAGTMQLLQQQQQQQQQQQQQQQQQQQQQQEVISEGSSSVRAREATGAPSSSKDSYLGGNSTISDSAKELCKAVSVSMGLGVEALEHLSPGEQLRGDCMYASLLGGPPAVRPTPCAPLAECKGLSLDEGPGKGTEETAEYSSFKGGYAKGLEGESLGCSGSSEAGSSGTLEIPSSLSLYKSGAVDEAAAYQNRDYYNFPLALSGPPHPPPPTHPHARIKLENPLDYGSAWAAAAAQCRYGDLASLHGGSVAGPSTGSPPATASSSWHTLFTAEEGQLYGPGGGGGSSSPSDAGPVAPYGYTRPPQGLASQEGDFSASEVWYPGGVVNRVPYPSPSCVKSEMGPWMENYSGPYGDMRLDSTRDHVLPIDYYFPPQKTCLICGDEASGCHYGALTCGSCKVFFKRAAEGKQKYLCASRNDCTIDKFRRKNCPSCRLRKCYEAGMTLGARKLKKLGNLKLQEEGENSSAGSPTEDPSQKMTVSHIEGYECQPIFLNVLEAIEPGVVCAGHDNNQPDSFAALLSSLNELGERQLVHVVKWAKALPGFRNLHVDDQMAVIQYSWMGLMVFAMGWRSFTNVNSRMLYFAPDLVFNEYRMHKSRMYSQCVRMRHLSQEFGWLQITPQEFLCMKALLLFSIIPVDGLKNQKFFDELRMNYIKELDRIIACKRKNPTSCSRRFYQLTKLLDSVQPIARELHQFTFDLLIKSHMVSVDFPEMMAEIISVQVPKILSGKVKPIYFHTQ
# ASSAY NAME: AR binding assay, competition with [3H]-mibolerone binding in rat ventral prostate cytosol
# SETTINGS: test compound 2.0 μM, 1 nM [3H]-mibolerone, overnight at 0° C.
MEASURED METRIC: inhibition at 2 µM (%)

>>> measurement("Cc1cc(NC(=O)C(C)(O)COc2cccc(F)c2)ccc1[N+](=O)[O-] (stereo not shown)")
99
>>> measurement("CC(O)(COc1ccc(C#N)c(F)c1)C(=O)Nc1ccc([N+](=O)[O-])c(C=O)c1 (stereo not shown)")
93
>>> measurement("Cc1cc(NC(=O)C(C)(O)COc2ccc(F)cc2)ccc1[N+](=O)[O-] (stereo not shown)")
105
>>> measurement("CC(=O)c1ccc(OCC(C)(O)C(=O)Nc2ccc([N+](=O)[O-])c(C)c2)cc1 (stereo not shown)")
91
